# target under test: T1, FJG4P (artificial (motif derived from human …))
# T1 chain: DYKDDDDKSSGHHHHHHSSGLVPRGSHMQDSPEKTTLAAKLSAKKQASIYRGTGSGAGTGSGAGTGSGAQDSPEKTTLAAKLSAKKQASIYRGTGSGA
# assay info: smTIRFM (koff/kon); kon 3.45e9 M-1 s-1, koff 0.94 s-1; EMSA: DNA annealed in 200 mM Tris pH 7.4, 100 mM KCl, 1 mM EDTA; binding 10 min at 25 C, native PAGE; smTIRFM: 100 pM tethered DNA, 100-5000 pM protein, buffer
# measurement parameters: protein: recombinant; tags: N-terminal FLAG-6xHis; label: 3' biotin on strand 2; 18 bp duplex with 3' ssDNA tail folded as parallel G4
property: Kd (nM)

>  <binder>
c-MYCG4 (smTIRFM tethering) (mixed) DNA 1: TGGCGACGGCAGCGAGGCTGGGTGGGTAGGGTGGGTTT DNA 2: GCCTCGCTGCCGTCGCCA

>  <property>
Kd

>  <unit info>
nM

>  <val>
0.27

$$$$
